Tested on: Plasmodium falciparum
Test details: GSK_TCMDC: Inhibition of Plasmodium falciparum 3D7 in whole erythrocytes, using parasite LDH activity as an index of growth.
Assay type: functional, organism-based
Condition label: Plasmodium falciparum, 3D7
Property label: XC50 (nM)
Write the value in nM as a bare number.

Example results:
1) Cc1cccc2nc(-c3ccc(-c4ccc(CN5CCCC(O)C5)cc4)cc3)[nH]c12 (stereo not given) | 859
2) O=C1OC2(CCN(C(=O)c3ccc(-n4cnnn4)cc3)CC2)CN1Cc1ccc(Cl)c(Cl)c1 | 715

Given Cc1cc(Nc2nc(Nc3cccc(Cl)c3)nc3ccccc23)n[nH]1 , state its recorded XC50.
287

Input O=C(Nc1ccc(-c2csc(-c3nc4ccccc4[nH]3)c2)cc1)Nc1ccsc1
552

Input O=S(=O)(NCCCN1CCOCC1)c1ccc2nccc(Nc3ccc(Oc4ccccc4)cc3)c2c1
855
